Overview of reported IC50 across a group of compounds:
Biological target: Glutamine synthetase (Oryza sativa)
Sequence (Q01HZ7 whole entry): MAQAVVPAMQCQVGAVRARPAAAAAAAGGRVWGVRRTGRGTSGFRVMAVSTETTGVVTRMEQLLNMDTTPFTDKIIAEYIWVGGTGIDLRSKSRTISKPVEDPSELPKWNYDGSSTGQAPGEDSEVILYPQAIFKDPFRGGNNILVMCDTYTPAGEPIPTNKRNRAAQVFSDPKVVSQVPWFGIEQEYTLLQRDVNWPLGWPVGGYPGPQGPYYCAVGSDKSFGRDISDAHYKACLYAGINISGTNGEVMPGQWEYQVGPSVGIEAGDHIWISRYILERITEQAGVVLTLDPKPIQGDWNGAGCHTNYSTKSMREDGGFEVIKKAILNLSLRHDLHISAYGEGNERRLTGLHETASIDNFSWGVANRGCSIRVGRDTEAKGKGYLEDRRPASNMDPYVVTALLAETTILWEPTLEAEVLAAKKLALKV
Assay: Inhibition of Oryza sativa cv. Gigante vercellese (rice) glutamine synthetase by transferase assay
Conditions: read-out: I50
Note: unit µM is implicit; provide only the numeric part.

{"smiles text": "O=P(O)(O)C(Nc1ccccn1)P(=O)(O)O", "unit label": "µM", "IC50": 1040}
{"smiles text": "O=[N+]([O-])c1cccc(NC(P(=O)(O)O)P(=O)(O)O)c1", "unit label": "µM", "IC50": 1.99}

# IC50 of `O=C(O)c1cccnc1NC(P(=O)(O)O)P(=O)(O)O` = 1.45

Lookup result for `CP(=O)(O)CC[C@H](N)C(=O)O` ; measured IC50: 172

# IC50 (compound: `O=P(O)(O)C(NC1CCCCC1)P(=O)(O)O` ) is 915

Lookup result for `O=P(O)(O)C(Nc1ccc(Cl)cn1)P(=O)(O)O` ; measured IC50: 1040

// `O=P(O)(O)C(Nc1cc(Cl)cc(Cl)c1)P(=O)(O)O` : IC50 value = 0.396

Notebook: `O=P(O)(O)C(NCc1ccccn1)P(=O)(O)O` , IC50 read as 1130
